The measurements presented in this section are drawn from patent US11608374.

Target: T1, mouse sclerostin (mouse)
T1 chain: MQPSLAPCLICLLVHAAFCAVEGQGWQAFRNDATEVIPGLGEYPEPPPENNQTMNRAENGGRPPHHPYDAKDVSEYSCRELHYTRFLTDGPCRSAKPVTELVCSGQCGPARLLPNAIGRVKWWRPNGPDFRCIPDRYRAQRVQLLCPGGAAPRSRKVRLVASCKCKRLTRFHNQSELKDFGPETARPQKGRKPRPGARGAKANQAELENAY
Assay: SPR, pH 7.4, 37C
Below, each entry is listed with its recorded Kd.
measurement_type: Kd (nM)

INSERT INTO assay_data (binder, quantitative_result) VALUES
  ('mabA_pH3 (antibody, V domains shown) VH: EVQLVQSGAEVKKPGASVKVSCKASGYTFTDYNMHWVRQAPGQGLEWMGEINPHSGHAGYNQKFKGRVTMTTDTSTSTAYMELRSLRSDDTAVYYCARLHYDDIHDDWYFDVWGQGTTVTVSS VL: DIQMTQSPSSLSASVGDRVTITCRASHDISNYLNWYQQKPGKAPKLLIYYTSRLLSGVPSRFSGSGSGTDFTLTISSLQPEDFATYYCQQGDTLPYTFGGGTKVEIK', 0.287),
  ('mabA_pH1 (antibody, V domains shown) VH: EVQLVQSGAEVKKPGASVKVSCKASGYTFTDYNMHWVRQAPGQGLEWMGEINPNSGHAGYNQKFKGRVTMTTDTSTSTAYMELRSLRSDDTAVYYCARLHYDDIYDDWYFDVWGQGTTVTVSS VL: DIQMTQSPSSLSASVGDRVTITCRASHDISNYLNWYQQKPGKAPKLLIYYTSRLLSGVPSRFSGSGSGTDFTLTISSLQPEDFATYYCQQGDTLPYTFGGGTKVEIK', 0.0632);
